Recorded values, source paper PMC10397247.

experimental target: T1, APC9182-AA
T1 chain: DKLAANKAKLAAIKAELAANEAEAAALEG
assay info: two-hybrid library CCmax;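 further: natural log of median RNA to DNA barcode read ratio; higher means stronger binding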
particulars: mean of both orientations
experimental readout: interaction score
The answer should be a number; do not append a unit.

// below: answered binders
DKNAALKAELAAIEAELAAIEAKLAANKG [APC5009-AA] = -1.29
DKAAALKAKAAALKAKNAALKAENAALEG [APC3354-AA] = -1.72
DELAANEAKNAALKAKLAAIKAELAAEEG [APC8516-AA] = -1.64
DEAAALEAKNAALKAKNAALKAELAAEEG [APC2556-AA] = -1.74

Measured interaction score, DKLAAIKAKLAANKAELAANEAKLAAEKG [APC1987-AA] : -1.95

Measured interaction score, DEAAALEAKNAALKAENAALEAKAAALKG [APC2543-AA] : -1.84

What the record says about DEAAALEAENAALEAKLAAEKAENAALEG [APC2474-AA] : interaction score is -1.69
